# targetSystem: α1-adrenergic receptor
# measurementNotes: radioligand binding, displacement of [3H] prazosin in rat brain cortex tissue
# conditionContext: [3H] prazosin, calculated from IC50
assayMetric: Ki (nM)

[[record]]
compound = "COc1cc2nc(N3CCN(C(=O)c4ccc(N)cc4)CC3)nc(N)c2cc1OC [C, reference compound]"
assayvalue = 17

[[record]]
compound = "COc1cc2nc(N3CCN(C(=O)CCCCc4ccc(N)cc4)CC3)nc(N)c2cc1OC.Cl.Cl [Example II, dihydrochloride]"
assayvalue = 4.5


====

Consider the following molecules and their measured pKi readings.
# targetSystem: α2-adrenergic receptor (Rattus norvegicus, UniProt P22909)
# Sequence (P22909 whole entry): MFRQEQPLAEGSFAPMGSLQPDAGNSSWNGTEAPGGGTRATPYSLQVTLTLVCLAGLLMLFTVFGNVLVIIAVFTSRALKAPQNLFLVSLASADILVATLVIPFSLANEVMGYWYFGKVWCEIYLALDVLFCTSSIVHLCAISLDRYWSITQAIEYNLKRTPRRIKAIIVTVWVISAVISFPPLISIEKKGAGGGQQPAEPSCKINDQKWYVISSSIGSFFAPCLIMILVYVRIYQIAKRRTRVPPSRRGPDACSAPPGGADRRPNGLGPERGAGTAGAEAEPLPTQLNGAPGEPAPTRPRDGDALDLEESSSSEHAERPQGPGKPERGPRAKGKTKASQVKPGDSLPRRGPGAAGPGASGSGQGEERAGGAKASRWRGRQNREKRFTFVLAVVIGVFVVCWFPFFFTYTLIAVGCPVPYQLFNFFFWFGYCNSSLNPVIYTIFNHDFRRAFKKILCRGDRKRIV
pKi: −log10 of the molar value.
assayMetric: pKi

[[record]]
molecule = "COc1cc2nc(N3CCN(C(=O)CCCCc4ccc(N)cc4)CC3)nc(N)c2cc1OC.Cl.Cl [Example II, dihydrochloride]"
assaymetric = "pKi"
assayvalue = 5.31

[[record]]
molecule = "COc1cc2nc(N3CCN(C(=O)c4ccc(N)cc4)CC3)nc(N)c2cc1OC [C, reference compound]"
assaymetric = "pKi"
assayvalue = 4.91

